Entry source: PubChem BioAssay (NCI)

Test system: A498 renal
Experiment: NCI tumour cell line growth inhibition, 48 h
Reported Metric: TGI (nM)
Give bare numbers, in nM.

Please review the following examples before continuing.
Molecule: CC(=C(c1ccc(OCCN2CCCCC2)cc1)c1ccc(OCCN2CCCCC2)cc1)c1ccc(Cl)cc1
Value Units: nM
TGI: 755
--
Molecule: CC(C)[C@@H]1NC(=O)[C@]2(C)CSC(=N2)c2ccnc(c2)CNC(=O)C[C@@H](/C=C/CCS)OC1=O
Value Units: nM
TGI: 254
--
Molecule: COc1cc(-c2nn(-c3cccc(NC(=O)c4ccccc4)c3)cc2-c2ccncc2)ccc1Cl
Value Units: nM
TGI: 1350

Lab note: need TGI for COc1cc(OCCN(C)C)c2[nH]c(C(=O)N3CC(CCl)c4ccc(N)cc43)cc2c1 (centres undefined) on A498 renal, anyone have it? 508

---

Record form. Attribute: TGI. Fill in for each entry.
System: SNB-78 CNS
Experiment: NCI tumour cell line growth inhibition, 48 h

Please review the following examples before continuing.
Compound: O=C(Nc1c(O)[nH]c(=S)[nH]c1=O)c1ccccc1
TGI: > 100 µM

Compound: COc1ccc(/C=C/COC(C)=O)cc1OC
TGI: > 100 µM

Compound: N#CC(C(=O)CCC(=O)Nc1ccc(Cl)c(Cl)c1)c1ccccc1 (centres undefined)
TGI: > 100 µM

From here, focus on the item given below.
Which TGI reading was recorded for the compound CCC(C)SC1SCC2C(=O)N(C)C3(CC3C)C(=O)OCC(NC(=O)c3nc4ccccc4cc3O)C(=O)NC(C)C(=O)N(C)C1C(=O)N(C)C1(CC1C)C(=O)OCC(NC(=O)c1nc3ccccc3cc1O)C(=O)NC(C)C(=O)N2C (centres undefined) ? 0.255 µM

---

Record form. Attribute: TGI. Fill in for each entry.
Test system: CCRF-CEM leukemia
Experiment: NCI tumour cell line growth inhibition, 48 h

Please review the following examples before continuing.
Compound: COc1cc2c(cc1OC)-c1cc(OC)c(OC)cc1C(CN(C)C)C2 (centres undefined)
TGI: > 10 µM

Compound: CN(C)c1ccc(/C=N/NC(=S)Nc2ccccc2)cc1
TGI: > 100 µM

Compound: O=C1c2sc(-c3ccc(Cl)cc3)cc2-n2cccc21
TGI: > 100 µM

Compound: Br[Se]c1ccccn1
TGI: > 100 µM

Compound: CCOC(=O)c1ccc(-c2cc(C)no2)[nH]1
TGI: > 100 µM

Could you report TGI for every entry in the following list?
1. COc1ccc2ncnc(Nc3ccc(OCc4ccccc4)cc3)c2c1
2. CC1NC(=O)C(C)C(c2ccccc2)N(N=O)C1c1ccccc1 (centres undefined)
3. COc1cccc(-c2cc(=O)c3cc(N4CCCCC4)ccc3[nH]2)c1
4. COc1cc(C2C(Cl)C(=O)N2n2cnc3ccccc3c2=O)ccc1O (centres undefined)

1: > 25 µM; 2: > 100 µM; 3: > 100 µM; 4: > 100 µM

---

Record form. Attribute: TGI. Fill in for each entry.
Test system: SR leukemia
Experiment: NCI tumour cell line growth inhibition, 48 h
Answers are plain numbers, in nM.

Molecule: O=C(NC1CCCCC1)NS(=O)(=O)c1ccc(N2N=C3c4ccccc4CC3C2c2ccc(Cl)cc2)cc1 (stereo not given)
Value Units: nM
TGI: 1850

From here, focus on the item given below.
Which TGI reading was recorded for the molecule "COc1cc2c(/C=C3/C(=O)Nc4cccc(Cl)c43)c(Cl)[nH]c2cc1C" ? 2950
